This listing pairs compounds with measured CLint scaled at 0.5 μM.
# experimentSummary: Metabolic stability in human liver microsomes, unbound intrinsic clearance (Cl int/fu mic)
# Assay type: in vitro ADME
# conditionContext: human, liver microsomes, pH 7.4, human liver microsomes 0.25 mg/mL, 0.5 μM compound, NADPH, read-out: Cl int, mic unb. (h) [l/h/kg] (unbound intrinsic clearance, human)
Where a name gives a salt, the structure may show the parent alone.

compound	CLint scaled at 0.5 μM
COc1nc(OCC(F)(F)F)c(F)cc1CNC(=O)[C@@H]1CCCN1C [Example 100, Hydrochloride]	< 5 L/h/kg
COc1nc(OCC2CC(F)(F)C2(F)F)c(F)cc1CN(C)C(=O)[C@@H]1CCCN1C (stereo partly shown) [Example 103, Hydrochloride]	< 5 L/h/kg
COc1nc(C2CCC(OC)CC2)c(F)cc1CNC(=O)[C@@H]1CCCN1 (stereo partly shown) [Example 172]	< 5 L/h/kg

Attention now turns to another entry.
Consider the compound shown here: COc1nc(O[C@H]2CC[C@H](C(F)(F)F)CC2)c(F)cc1CNC(=O)[C@@H]1CCCN1 [Example 11] What is its recorded CLint scaled at 0.5 μM?
5 to 50 L/h/kg

====

# target: 5-HT2C receptor (Homo sapiens, UniProt P28335)
# Sequence (P28335 33-458): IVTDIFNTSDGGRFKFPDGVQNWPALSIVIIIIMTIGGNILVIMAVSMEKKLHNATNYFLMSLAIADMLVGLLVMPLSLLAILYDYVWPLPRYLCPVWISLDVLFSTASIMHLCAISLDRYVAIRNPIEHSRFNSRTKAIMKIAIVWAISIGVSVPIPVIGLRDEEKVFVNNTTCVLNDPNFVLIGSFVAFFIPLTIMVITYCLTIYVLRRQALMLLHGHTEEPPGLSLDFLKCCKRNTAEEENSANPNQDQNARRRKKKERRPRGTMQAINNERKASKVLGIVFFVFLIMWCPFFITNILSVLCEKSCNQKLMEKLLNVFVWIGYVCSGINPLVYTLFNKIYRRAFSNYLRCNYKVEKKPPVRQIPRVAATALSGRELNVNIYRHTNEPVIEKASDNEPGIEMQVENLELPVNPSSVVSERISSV
# Sequence (P32121 whole entry partner): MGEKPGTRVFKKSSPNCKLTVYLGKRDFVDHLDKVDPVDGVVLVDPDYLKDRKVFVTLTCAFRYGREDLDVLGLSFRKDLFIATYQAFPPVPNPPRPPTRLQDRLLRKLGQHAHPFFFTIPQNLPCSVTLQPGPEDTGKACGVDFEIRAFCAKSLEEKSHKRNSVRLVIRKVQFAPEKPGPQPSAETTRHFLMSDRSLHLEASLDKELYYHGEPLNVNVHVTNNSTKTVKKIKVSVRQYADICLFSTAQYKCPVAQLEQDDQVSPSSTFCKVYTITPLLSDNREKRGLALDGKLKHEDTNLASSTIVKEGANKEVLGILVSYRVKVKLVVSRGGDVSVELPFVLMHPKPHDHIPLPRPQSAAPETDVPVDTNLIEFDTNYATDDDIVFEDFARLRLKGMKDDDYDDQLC
# experimentSummary: Human 5-HT2C functional assay (beta-arrestin2 recruitment, U2OS_HTR2C_β-Arrestin cells)
# conditionContext: beta-arrestin2 recruitment, U2OS_HTR2C_β-Arrestin cells, 1.5 h incubation; read-out: EC50 5-HT2C (potency in functional assay)
pEC50: −log10 of the molar value.
This listing pairs compounds with measured pEC50.

Reference set (2 entries):
compound	pEC50
COc1nc(OCCCC(F)(F)F)c(F)cc1CNC(=O)[C@@H]1CCCN1	> 7.70
COc1nc(O[C@H]2CC[C@@H](C(F)(F)F)CC2)c(F)cc1CNC(=O)[C@@H]1CCCN1	> 7.70

Attention now turns to another entry.
Give recorded pEC50 with 5-HT2C receptor (Homo sapiens, UniProt P28335) for the following compound: COc1nc(O[C@@H]2CCCC[C@H]2F)c(F)cc1CNC(=O)[C@@H]1CCCN1
> 7.70

====

This listing pairs compounds with measured pEC50.
# target: 5-HT2C receptor (Homo sapiens)
# experimentSummary: Human 5-HT2C functional assay (beta-arrestin2 recruitment, U2OS_HTR2C_β-Arrestin cells)
# conditionContext: beta-arrestin2 recruitment, U2OS_HTR2C_β-Arrestin cells, 1.5 h incubation; read-out: EC50 5-HT2C (potency in functional assay)
pEC50: −log10 of the molar value. Where a name gives a salt, the structure may show the parent alone.

Reference set (3 entries):
compound	pEC50
COc1nc(OC2CCC(CF)CC2)c(F)cc1CNC(=O)[C@@H]1CCCN1 (some centres unmarked) [Example 75]	> 7.70
COc1nc(OCC2(C(F)F)CC2)c(F)cc1CNC(=O)[C@@H]1CCCN1C [Example 96]	> 7.70
COc1nc(N2CC(Oc3ccc(Cl)cc3)C2)c(F)cc1CNC(=O)[C@@H]1CCCN1 [Example 151]	6.00 to 6.70

Consider the compound shown here: COc1nc(N2CCCC3(C2)CC3(F)F)c(F)cc1CNC(=O)[C@@H]1CCCN1 (some centres unmarked) [Example 188] What is its recorded pEC50?
6.70 to 7.70

Cool, now COc1nc(O[C@H]2CC[C@H](C(F)(F)F)CC2)c(F)cc1CN(C)C(=O)[C@@H]1CCCN1 [Example 116, Hydrochloride]
6.70 to 7.70

Cool, now COc1nc(OCC(F)(F)C(F)F)c(F)cc1CN(C)C(=O)[C@@H]1CCCN1C [Example 102, Hydrochloride]
6.00 to 6.70

Cool, now COc1nc(N2CCCC2)c(F)cc1CNC(=O)[C@@H]1CCCN1 [Example 135]
6.70 to 7.70

Cool, now COc1nc(N2CCC(C(F)(F)F)CC2)c(F)cc1CNC(=O)[C@@H]1CCCN1 [Example 133]
> 7.70

====

# target: 5-HT2C receptor (Homo sapiens, UniProt P28335)
# experimentSummary: Human 5-HT2C functional assay (beta-arrestin2 recruitment, U2OS_HTR2C_β-Arrestin cells)
# conditionContext: beta-arrestin2 recruitment, U2OS_HTR2C_β-Arrestin cells, 1.5 h incubation; read-out: EC50 5-HT2C (potency in functional assay)
pEC50: −log10 of the molar value. Structures can show the parent of a compound that is named as a salt.
testReadout: pEC50

molecule	target	pEC50
COc1nc(C2CCCOC2)c(F)cc1CNC(=O)[C@@H]1CCCN1 (some centres unmarked) [Example 158, Hydrochloride]	5-HT2C receptor (Homo sapiens, UniProt P28335)	6.70 to 7.70
COc1nc(N2CCOC(c3ccccc3)C2)c(F)cc1CNC(=O)[C@@H]1CCCN1 (some centres unmarked) [Example 173]	5-HT2C receptor (Homo sapiens, UniProt P28335)	6.00 to 6.70
COc1nc(N2CCC(F)(F)C2)c(F)cc1CNC(=O)[C@@H]1CCCN1 [Example 164]	5-HT2C receptor (Homo sapiens, UniProt P28335)	6.70 to 7.70
COc1nc(OC[C@@H]2CCC(F)(F)C2)c(F)cc1CNC(=O)[C@@H]1CCCN1C [Example 16]	5-HT2C receptor (Homo sapiens, UniProt P28335)	> 7.70
COc1nc(OC2CCC(F)(F)CC2)cnc1CNC(=O)[C@@H]1CCCN1 [Example 108]	5-HT2C receptor (Homo sapiens, UniProt P28335)	6.70 to 7.70
COc1nc(NC2CCCCC2)c(F)cc1CNC(=O)[C@@H]1CCCN1 [Example 131]	5-HT2C receptor (Homo sapiens, UniProt P28335)	> 7.70
COc1nc(N(C)C2CC2)c(F)cc1CNC(=O)[C@@H]1CCCN1 [Example 147]	5-HT2C receptor (Homo sapiens, UniProt P28335)	6.00 to 6.70
COc1nc(OC(C(F)(F)F)C(F)(F)F)c(F)cc1CNC(=O)[C@@H]1CCCN1 [Example 111, Hydrochloride]	5-HT2C receptor (Homo sapiens, UniProt P28335)	> 7.70
COc1nc(OCC2(C(F)F)CC2)c(F)cc1CNC(=O)[C@@H]1CCCN1 [Example 97]	5-HT2C receptor (Homo sapiens, UniProt P28335)	> 7.70
COc1nc(NC2CCC(C(F)(F)F)CC2)c(F)cc1CN(C)C(=O)[C@@H]1CCCN1 (mixture of isomers) [Example 157]	5-HT2C receptor (Homo sapiens, UniProt P28335)	6.00 to 6.70

Give recorded pEC50 with 5-HT2C receptor (Homo sapiens, UniProt P28335) for the following molecule: COc1nc(N[C@H]2CC[C@H](C(F)(F)F)CC2)c(F)cc1CNC(=O)[C@@H]1CCCN1 [Example 143]
> 7.70

Cool, now COc1nc(OC2CC(F)(F)C2)c(F)cc1CN(C)C(=O)[C@@H]1CCCN1 [Example 78, Hydrochloride]
> 7.70

Cool, now COc1nc(Nc2ccc(F)cc2)c(F)cc1CNC(=O)[C@@H]1CCCN1 [Example 178]
6.00 to 6.70

Cool, now COc1nc(N2CCCCC2)c(F)cc1CNC(=O)[C@@H]1CCCN1 [Example 128]
6.70 to 7.70

Cool, now COc1nc(N(C)CCc2ccccc2)c(F)cc1CNC(=O)[C@@H]1CCCN1 [Example 137, Hydrochloride]
6.00 to 6.70

====

# target: 5-HT2C receptor (Homo sapiens, UniProt P28335)
# experimentSummary: Human 5-HT2C functional assay (beta-arrestin2 recruitment, U2OS_HTR2C_β-Arrestin cells)
# conditionContext: beta-arrestin2 recruitment, U2OS_HTR2C_β-Arrestin cells, 1.5 h incubation; read-out: EC50 5-HT2C (potency in functional assay)
Structures can show the parent of a compound that is named as a salt.
This listing pairs compounds with measured EC50.

compound	testReadout	reported
C=CCN(Cc1ccccc1)c1nc(OC)c(CNC(=O)[C@@H]2CCCN2)cc1F [Example 150, Hydrochloride]	EC50	20 to 200 nM
COc1nc(OC2CCC3(CC2)CC3(F)F)c(F)cc1CNC(=O)[C@@H]1CCCN1 (stereo partly shown)	EC50	< 20 nM
COc1nc(OC2CCC(F)(F)CC2)c(F)cc1CNC(=O)[C@@H]1CCN1	EC50	< 20 nM
COc1nc(N2CCC(F)(F)CC2)c(F)cc1CN(C)C(=O)[C@@H]1CCCN1	EC50	20 to 200 nM
COc1nc(OC2CCC(F)(F)CC2)c(F)cc1CNC(=O)[C@@H]1C[C@@H](C)CN1 [Example 59, Hydrochloride]	EC50	< 20 nM
COc1nc(O[C@H]2CC[C@H](C(F)(F)F)CC2)c(F)cc1CNC(=O)[C@@H]1CCCN1C	EC50	< 20 nM
COc1nc(OCC(F)(F)C(F)(F)F)c(F)cc1CNC(=O)[C@@H]1CCCN1	EC50	< 20 nM
COc1nc(OC[C@@H]2CCC(F)(F)C2)c(F)cc1CNC(=O)[C@@H]1CCCN1	EC50	< 20 nM

Attention now turns to another entry.
Consider the compound shown here: COc1nc(OCC(C)CC(F)(F)F)c(F)cc1CNC(=O)[C@@H]1CCCN1 (stereo partly shown) What is its recorded EC50?
< 20 nM

The values you see were collected from patent US20190062305A1.
